Molecular target: MKP3^FL (Homo sapiens, UniProt Q16828)
Construct: MKP3(1–381) (MKP3^FL)
Sequence (Q16828 whole entry): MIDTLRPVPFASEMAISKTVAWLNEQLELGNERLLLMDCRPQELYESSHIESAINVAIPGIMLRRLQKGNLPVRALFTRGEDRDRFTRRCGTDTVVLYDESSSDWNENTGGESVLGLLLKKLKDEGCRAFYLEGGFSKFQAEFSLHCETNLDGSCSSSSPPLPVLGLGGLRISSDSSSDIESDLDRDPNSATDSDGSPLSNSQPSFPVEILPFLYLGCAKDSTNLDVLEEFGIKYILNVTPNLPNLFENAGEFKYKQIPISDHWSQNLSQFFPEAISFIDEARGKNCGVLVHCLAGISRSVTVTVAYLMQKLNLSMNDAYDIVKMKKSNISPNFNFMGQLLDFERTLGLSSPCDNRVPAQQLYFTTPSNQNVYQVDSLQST
Assay: MST affinity measurement
Settings: one-site binding model, mean ± SD of three experiments
Parameter: Kd (µM)
State the answer as a number, implicitly in µM.

Value of measured Kd for the entry O=C1/C(=C/c2ccccc2)C(NC2CCCCC2)c2ccccc21 (stereo not shown) : 9.2
